- Experiment notes: Evaluation of hippocampal distribution in mouse
- Assay type: in vivo
- Assay conditions: plasma, male ICR mice, 10 mg/kg oral, 1.5 hr after administration, read-out: plasma concentration (mean)
Structures can show the parent of a compound that is named as a salt.
Reported metric: concentration at 1.5 h (ng/mL)

Cc1nnc(NC(=O)c2cc([C@@H]3C[C@H]3NC3CCC3)ccc2F)s1 (relative stereo) [Example 183, dihydrochloride]: 651

====

Counter-ions that a name gives are not always drawn.
Let's go through some recorded IC50 values for MAO-A enzyme (Homo sapiens (Human), UniProt P21397) together.
Reported metric: IC50

O=C(NCc1ccccc1)c1ccc([C@@H]2C[C@H]2NCc2ccccc2F)cc1 (relative stereo) [Example 39, trifluoroacetate]: 6.6 µM
O=C(Nc1cnn(-c2ccc(F)cc2)c1)c1cccc([C@@H]2C[C@H]2NC2CCS(=O)(=O)CC2)c1 (relative stereo) [Example 197, dihydrochloride]: > 10 µM
CCn1cc(NC(=O)c2cccc([C@@H]3C[C@H]3NCC3CCOCC3)c2)cn1 (relative stereo) [Example 86, dihydrochloride]: > 10 µM
Cc1nnc(NC(=O)c2ccc(F)c([C@@H]3C[C@H]3NCC3CC3)c2)s1 (relative stereo) [Example 109, dihydrochloride]: > 10 µM
Cc1ccccc1CN[C@@H]1C[C@H]1c1ccc(C(=O)NCc2ccccc2)cc1 (relative stereo) [Example 33, trifluoroacetate]: > 10 µM
Cc1ncc(NC(=O)c2cccc([C@@H]3C[C@H]3NC3CCOCC3)c2)s1 (relative stereo) [Example 212, dihydrochloride]: > 10 µM
Cc1csc(CN[C@@H]2C[C@H]2c2ccc(C(=O)NCc3ccccc3)cc2)c1 (relative stereo) [Example 49, trifluoroacetate]: 1.8 µM
Cc1cc(NC(=O)c2cccc([C@@H]3C[C@H]3NCC3CC3)c2)on1 (relative stereo) [Example 106, hydrochloride]: > 10 µM
CN1CCC(N[C@@H]2C[C@H]2c2cccc(C(=O)Nc3cnn(CC4CC4)c3)c2)CC1 (relative stereo) [Example 202, trihydrochloride]: > 10 µM
O=C(NCc1ccccc1)c1ccc([C@@H]2C[C@H]2NCc2cccs2)cc1 (relative stereo) [Example 46, trifluoroacetate]: 1.8 µM
CC(C)(C)CN[C@@H]1C[C@H]1c1cccc(C(=O)NC2CC(F)(F)C2)c1 (relative stereo) [Example 154, hydrochloride]: > 10 µM
COc1cccc(CN[C@@H]2C[C@H]2c2ccc(C(=O)NCc3ccccc3)cc2)c1 (relative stereo) [Example 37, trifluoroacetate]: 4.5 µM

Origin of measurements: patent US9751885B2
